Consider the following variants; for each one, report its abundance fitness.
B1: Chromodomain-helicase-DNA-binding protein 4, residues 365 to 417; numbered along this chain, Q14839 (parent)
chain: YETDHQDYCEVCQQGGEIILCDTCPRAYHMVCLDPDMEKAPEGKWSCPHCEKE

- Variants of: B1
- method notes: abundance fitness (aPCA) (normalised: wild type 0, dead -1); higher = more abundant; growth selection in yeast, the domain comes from the species named
- experimental parameters: Homo sapiens
I only need the number, thanks.

[Q] State the recorded abundance fitness for this entry: `C9Y`
[A] -1.02

[Q] State the recorded abundance fitness for this entry: `R26M`
[A] 0.183

[Q] State the recorded abundance fitness for this entry: `G43R`
[A] -0.09

[Q] State the recorded abundance fitness for this entry: `M37H`
[A] -0.217

[Q] State the recorded abundance fitness for this entry: `C24N`
[A] -0.401

[Q] State the recorded abundance fitness for this entry: `Q14Y`
[A] -0.338

[Q] State the recorded abundance fitness for this entry: `P41C`
[A] -0.212

[Q] State the recorded abundance fitness for this entry: `E51T`
[A] -0.174

[Q] State the recorded abundance fitness for this entry: `P48H`
[A] -0.057

[Q] State the recorded abundance fitness for this entry: `C21A`
[A] -0.882

[Q] State the recorded abundance fitness for this entry: `Y8C`
[A] -0.222
